test.summary: protein stability index of a GFP-peptide fusion (yeast GPS) (PSI 1-4); higher = more stable; sorted into four equal gates, so the index is relative within each strain
condition.parameters: ubr1∆
Assign protein stability index to each entry below.

IN: Report protein stability index for SGTFYRYNAKAIGSGSE [PUP2]
OUT: 2.98

IN: Report protein stability index for EYKLATYGVPGSENKRG [NUT1]
OUT: 2.96

IN: Report protein stability index for IVGQKNLNRAFNGDQVI [DIS3]
OUT: 2.98

IN: Report protein stability index for NLIGVITHQGANSESGH [UBP6]
OUT: 3.07

---

test.summary: protein stability index of a GFP-peptide fusion (yeast GPS) (PSI 1-4); higher = more stable; sorted into four equal gates, so the index is relative within each strain
condition.parameters: ubr1∆
measurement.type: protein stability index
Would you mind answering with just the numeric figure?

IN: Report protein stability index for LDVDPAKRIRVSHHATT [RPB2]
OUT: 3

IN: Report protein stability index for GGDTCSSDGALCMDSSY [POP1]
OUT: 2.27

IN: Report protein stability index for LIIIEKKQKLIEEQDKK [ITC1]
OUT: 2.89

IN: Report protein stability index for LGKAQNWAKFTATASLG [RPN2]
OUT: 2.28

IN: Report protein stability index for KEIKTNEYVIKTPVFTT [YMR129W/POM152]
OUT: 1.94

IN: Report protein stability index for IDPSVTMMTVEEKPDVT [RPT1]
OUT: 2.38

Recorded values, source the supplement of paper PMC9732359.
